// cross-source set; read-out = IC50; system = UniProt:P52333

In [3]: df
Out[3]:
                         structure_notation  endpoint_label  measured_value
0  N#CCC(=O)N1CC2(CCC(c3cccc4nc(NC(=O)[C@@H]5CC5(F)F)nn34)CC2)C1            IC50      > 10000 nM
1  CN(c1ccccc1CNc1nc(-c2cc(F)c(O)cc2CC(F)(F)F)cc2[nH]nc(C(N)=O)c12)S(C)(=O)=O            IC50         39.6 nM

input: Name the recorded IC50 for CCC(=O)c1cnc(Nc2cnc(O[C@@H]3CCN(CC)C3)cn2)cc1Nc1cccc(-c2ncn(C)n2)c1OC .
output: > 500 nM

----------
IC50 for Tyrosine-protein kinase JAK3 (Homo sapiens) - collated from the literature.

Some solved cases for reference:
                         structure_notation  measured_value
0  COc1nn(C)cc1Nc1nccc(-c2c[nH]c3c(NC(=O)[C@@H](C)N4CCN(C)CC4)cccc23)n1      > 30000 nM
1  CCC(=O)c1cnc(Nc2cnc(OCCN3CCN(C)CC3)cn2)cc1Nc1cccc(-c2ncn(C)n2)c1OC        > 500 nM
2  N#CCC(=O)N1CC2(CCC(c3cccc4nc(NC(=O)[C@H]5CC5(F)F)nn34)CC2)C1      > 10000 nM

input: # lookup: IC50 of C=CC(=O)Nc1cccc(-c2cnc3[nH]cc(-c4cccc(C)c4F)c3c2)c1
output: < 100 nM

input: Request: O=C(Nc1nc2cccc(C3(F)CCC4(CC3)CN(C(=O)CC(F)F)C4)n2n1)C1CC1
output: 364 nM

input: Query C=CC(=O)Nc1cccc(-c2cnc3[nH]cc(-c4cccc(S(=O)(=O)N(CC)CC)c4)c3c2)c1 next
output: < 100 nM
